Ref: BindingDB's records for doi:10.1016/j.bmcl.2005.10.013

Assay: Noradrenaline induced vasorelaxant activity in intact rat aortic rings
pIC50: −log10 of the molar value.
Entries and their measured pIC50 follow.
recorded endpoint: pIC50

{"structure string": "O=c1oc2cc(O)ccc2cc1-c1cc(O)cc(O)c1", "sign": "=", "val": 4.41}
{"structure string": "O=c1oc2ccc(O)cc2cc1-c1cc(O)cc(O)c1", "sign": "=", "val": 4.98}
{"structure string": "COc1cc(OC)cc(-c2cc3cc(OC)cc(OC)c3oc2=O)c1", "sign": "<", "val": 4.00}
{"structure string": "Oc1ccc(/C=C/c2cc(O)cc(O)c2)cc1", "sign": "=", "val": 4.70}
{"structure string": "COc1cc(OC)cc(-c2cc3ccc(O)cc3oc2=O)c1", "sign": "=", "val": 4.40}
{"structure string": "COc1cc(OC)cc(-c2cc3cc(OC)ccc3oc2=O)c1", "sign": "=", "val": 4.37}
{"structure string": "O=c1oc2c(O)cc(O)cc2cc1-c1cc(O)cc(O)c1", "sign": "=", "val": 4.02}
{"structure string": "COc1cc(OC)cc(-c2cc3ccc(OC)cc3oc2=O)c1", "sign": "=", "val": 4.28}
